assay system: recombinant IL4I1 (Homo sapiens)
Sequence (Q96RQ9 22-567): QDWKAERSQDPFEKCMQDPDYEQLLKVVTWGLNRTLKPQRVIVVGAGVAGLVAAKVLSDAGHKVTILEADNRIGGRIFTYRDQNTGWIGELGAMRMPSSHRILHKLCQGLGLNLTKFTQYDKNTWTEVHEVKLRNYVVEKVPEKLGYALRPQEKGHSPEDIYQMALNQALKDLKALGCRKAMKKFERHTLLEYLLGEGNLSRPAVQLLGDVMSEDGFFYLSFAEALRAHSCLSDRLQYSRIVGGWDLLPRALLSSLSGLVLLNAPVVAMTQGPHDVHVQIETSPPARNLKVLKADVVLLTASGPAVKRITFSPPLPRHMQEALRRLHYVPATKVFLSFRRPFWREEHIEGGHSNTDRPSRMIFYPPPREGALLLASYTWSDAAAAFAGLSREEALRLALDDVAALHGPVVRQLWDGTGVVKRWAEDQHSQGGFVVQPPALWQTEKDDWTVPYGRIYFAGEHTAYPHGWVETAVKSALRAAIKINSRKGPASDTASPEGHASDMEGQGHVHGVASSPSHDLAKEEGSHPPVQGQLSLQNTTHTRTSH
protocol summary: IL4I1 Enzymatic Assay (Amplex Red/HRP coupled detection of H2O2, fluorescence)
condition parameters: 1 nM recombinant IL4I1; four-hour pre-incubation with compound; 1 mM each Phe, Tyr, Trp; ten-point titration
pEC50: −log10 of the molar value.
So basically: pEC50 at 7 or higher? That is class 1. Lower than 7? That is class 0.

| compound | cat |
| --- | --- |
| Cn1cc(C(=O)NCc2nnc(-c3cn[nH]c3)s2)nn1 | class 0 |
| O=C(NCc1nnc(-c2ccccc2)s1)c1cn(-c2cn[nH]c2)nn1 | class 1 |
| O=C(NCc1nnc(-c2ccccc2)s1)c1cn(C2CC2(F)F)nn1 (single isomer, unassigned) [Example 131] | class 1 |
| Cc1nc(C(C)(C)O)ccc1-n1cc(C(=O)NCc2nnc(-c3ccccc3)s2)nn1 | class 0 |
| O=C(NCc1cc(-c2ccccc2)no1)c1cn(CC(F)(F)F)nn1 | class 1 |
| COCCOCCn1cc(C(=O)NCc2nnc(-c3ccccc3)s2)nn1 | class 1 |
| CC(C)c1cc(C(=O)NCc2nnc(-c3ccccc3)s2)no1 | class 1 |
| O=C(NCc1nnc(-c2ccccc2)s1)c1cc(C(F)(F)F)no1 | class 0 |

Challenge: Assess whether reported pEC50 for Cc1ccc(-n2cc(C(=O)NCc3nnc(C4CCCCC4)s3)nn2)c(C)n1 sits at 7 or higher.
Response given: class 0

Challenge: Assess whether reported pEC50 for Cc1ccc(-n2cc(C(=O)NCc3cc(-c4ccccn4)no3)nn2)c(C)n1 sits at 7 or higher.
Response given: class 0

Challenge: Assess whether reported pEC50 for Cn1cc(C(=O)NCc2cc(-c3cccc(F)c3)no2)nn1 sits at 7 or higher.
Response given: class 0

Challenge: Assess whether reported pEC50 for CC1(n2cc(C(=O)NCc3nnc(-c4ccccc4)s3)nn2)CS(=O)(=O)C1 sits at 7 or higher.
Response given: class 0
